Entry source: paper PMC10095481

target: HPV-11 E2 (full length) (Human papillomavirus type 11, UniProt P04015 1-367); test: EMSA; EMSA: 10 mM HEPES pH 7.9, 50 mM NaCl, 4 mM MgCl2, 10% glycerol, 5 mM DTT, 0.2 mM EDTA, 0.1 mg/mL BSA, 10 ng/uL poly(dI-dC), 10 min 30 C; conditions: protein: recombinant; tags: N-terminal His (pET28a); chain copies: 2; label: 32P
Sequence (P04015 whole entry): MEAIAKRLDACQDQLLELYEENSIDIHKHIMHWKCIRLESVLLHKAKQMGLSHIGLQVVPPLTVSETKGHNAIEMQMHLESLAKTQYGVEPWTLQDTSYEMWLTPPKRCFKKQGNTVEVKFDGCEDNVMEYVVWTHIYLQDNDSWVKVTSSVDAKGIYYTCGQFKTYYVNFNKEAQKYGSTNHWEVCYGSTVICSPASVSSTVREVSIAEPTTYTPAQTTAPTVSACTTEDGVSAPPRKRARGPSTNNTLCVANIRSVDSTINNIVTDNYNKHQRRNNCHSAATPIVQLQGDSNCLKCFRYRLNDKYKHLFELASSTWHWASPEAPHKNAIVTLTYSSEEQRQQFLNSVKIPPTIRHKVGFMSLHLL
Reported Metric: Kd (nM)
Output spec: scalar in nM, unitless text.

[ask] Return the recorded Kd value; entry: BS4 with GTTT spacer (dsDNA) DNA 1: CTTGCAACCGGTTTCGGTTGCCCT DNA 2: AGGGCAACCGAAACCGGTTGCAAG
[reply] 6.4

[ask] Give me measured Kd, please, for this binder: BS1 5' mutant (dsDNA) DNA 1: CCTGCAACCGAAAACGGTTATATG DNA 2: CATATAACCGTTTTCGGTTGCAGG
[reply] 6.4

[ask] // fetch Kd given entry BS1 3' mutant (dsDNA) DNA 1: GGTTCAACCGAAAACGGTTACCCA DNA 2: TGGGTAACCGTTTTCGGTTGAACC
[reply] 7.6

[ask] Output Kd of BS1 5'+3' mutant (dsDNA) DNA 1: CCTGCAACCGAAAACGGTTACCCA DNA 2: TGGGTAACCGTTTTCGGTTGCAGG
[reply] 7.7
